# Tested on: Caco-2
# assay.name: Antiproliferative activity against human Caco2 cells after 48 hrs by MTT assay
# Format: functional, cell-based
# conditions.used: Caco-2, 48 h
observed.property: IC50 (µM)

Illustrative cases are given below, each with its answer.
# input Field: IC50 (Caco-2). Entry: "C=C(C(=O)O)[C@@H]1CC[C@]2(C)C(=C(C)C(=O)[C@@H](O)[C@H]2O)C1"
# output 66

# input Please answer likewise for "C=C(C(=O)O)[C@@H]1CC[C@@]2(C)C[C@H](O)C(=O)C(C)=C2C1"
# output 60

# input Please answer likewise for "C=C(C(=O)O)[C@@H]1CC[C@@]2(C)C=C(O)C(=O)C(C)=C2C1"
# output 46

# input Please answer likewise for "C=C(C(=O)O)[C@@H]1CC[C@@]2(C)C=CC(=O)C(C)=C2C1"
# output 66

P: C=C(C(=O)O)[C@@H]1CC[C@]2(C)C(=C(C)C(=O)C[C@H]2O)C1
Q: C=C(C(=O)O)[C@@H]1CC[C@@]2(C)CCC(=O)C(C)=C2C1
# input // which entry has the larger IC50 value, P or Q ? State the label of the item chosen.
# output P
(P: 75 µM, Q: 39 µM)

Values were extracted from ChEMBL document CHEMBL4052737.
